- Tested on: RAW-Dual (murine macrophage reporter line)
- TEST_DESCRIPTION: IRF reporter (Lucia luciferase) activity fold change vs agonist alone; higher = enhanced IRF activity
- DETAILS: modulator concentration 10 µM; agonist: 3'3'-cGAMP 10 ug/mL
Threshold rule: IRF reporter greater than or equal to 1 is true (1); below that, false (0).

Item CC1C(=O)N2CCCc3cc(S(=O)(=O)N4CCN(c5cccc(Cl)c5)CC4)cc1c32 (stereo not given) with IRF reporter of 1 or above?
false (0)

In plain terms: is recorded IRF reporter at least 1 for `CNC(=O)Cc1cn(Cc2ccccc2)c2ccccc12` ?
false (0)

Is it the case that `Cc1ccc(Nc2ccc(NC(=O)C(C)C)cc2)nn1` has IRF reporter reaching or exceeding 1?
true (1)

Does the reported IRF reporter for Cc1nc(-c2ccc(S(=O)(=O)N3C4CCC3CC(Oc3cccnc3)C4)cc2)co1 (stereo not given) fall at or above the 1 mark?
true (1)

API: above_or_equal(metric=IRF reporter, cutoff=1) for item `COC(=O)c1cc(NC(=O)C2CCCC2)cc(C(=O)OC)c1`
false (0)

Determine whether measured IRF reporter meets or exceeds 1 for O=C(NC1CC(=O)N(c2ccc(F)cc2)C1)c1ccc(Cl)cc1 (stereo not given)
false (0)

Item `CCCOc1ccc(CCC(=O)O)cc1` with IRF reporter of 1 or above?
true (1)

API: above_or_equal(metric=IRF reporter, cutoff=1) for item CC12CCC(=O)C=C1C=CC1C2CCC2(C)C1CCC21CCC(=O)O1 (stereo not given)
false (0)

Form field: IRF reporter at least 1? Entry: `c1ccc(CCn2c(COc3ccccc3)nc3ccccc32)cc1`
true (1)

Is IRF reporter at least 1? Consider `Cc1cccc(Sc2nccn3c(=O)n(CC(=O)N4CCN(c5ccccc5)CC4)nc23)c1`
false (0)

Assess whether reported IRF reporter for `CC[C@H](C)C(=O)O[C@H]1CCC=C2C=C[C@H](C)[C@H](CC[C@@H]3C[C@@H](O)CC(=O)O3)[C@H]21` sits at 1 or higher.
false (0)

Reported IRF reporter reaches at least 1 for `Cc1ccccc1CNC(=O)CN(c1cccc(C(F)(F)F)c1)S(C)(=O)=O` ?
false (0)

Please check the record FC(F)(F)c1ccc(CN2CCCC(c3nc4ccccc4[nH]3)C2)cc1 (stereo not given) and state if its IRF reporter is at or above 1.
false (0)

Determine whether this compound has IRF reporter no lower than 1: COC(=O)C1=CN(CC2CCCO2)C=C(C(=O)OC)C1c1ccc2c(c1)OCO2 (stereo not given)
true (1)

Does O=C(CC1CCCCN1S(=O)(=O)c1ccccc1)NCCC1=CCCCC1 (stereo not given) have a reported IRF reporter of at least 1?
true (1)

# check: IRF reporter of `O=C(CCCCCN1C(=O)c2cccc3cccc(c23)C1=O)NO` is greater than or equal to 1
false (0)

Hi, just wondering whether `CCOc1ccc(-c2cccc(NC(=O)c3c(F)cccc3F)c2)nn1` shows IRF reporter of 1 or higher.
false (0)

Test whether the compound CNC(=O)c1ccc2cc(C3(O)CCn4cncc43)ccc2c1 (stereo not given) records IRF reporter of 1 or higher.
false (0)

Check the entry `C#CCN[C@@H]1CCc2ccccc21.CS(=O)(=O)O` : does IRF reporter equal or exceed 1?
false (0)

Please tell me: is the compound `N[C@H](Cc1ccccc1)C(=O)O` at or over 1 in terms of IRF reporter?
false (0)

Dear colleague, could you confirm whether `CCN(CC)c1ccc(C=NNC(=O)c2ccncc2)cc1` has IRF reporter at or above 1?
false (0)

I'd appreciate it if you could say whether `C[C@@H](O)[C@H]1C(=O)N2C(C(=O)O)=C(SCCNC=N)C[C@H]12.O` has IRF reporter at least equal to 1.
false (0)

Hello, I need to know if COC(=O)CNC(c1ccccc1)c1cc(Br)ccc1NC(=O)c1ccccc1 (stereo not given) has measured IRF reporter not below 1. Thanks!
true (1)

State whether the measured IRF reporter reaches 1, counting equality as reaching it, for `O=C(C=Cc1ccc(O)cc1)c1ccc(O)cc1O`
false (0)

Say whether `Cl.Cl.Fc1ccc(C(c2ccc(F)cc2)N2CCN(C/C=C/c3ccccc3)CC2)cc1` shows IRF reporter of 1 or more.
true (1)

Does `COc1ccc(OCCSc2nc3ccccc3n2CCO)cc1` have a reported IRF reporter of at least 1?
true (1)

Quick check: does COc1cc2nc(N3CCN(C(=O)C4COc5ccccc5O4)CC3)nc(N)c2cc1OC (stereo not given) have IRF reporter greater than or equal to 1?
false (0)

Threshold query (IRF reporter >= 1) on `CN1CCN(C2=Nc3ccccc3Oc3ccc(Cl)cc32)CC1`
false (0)

Has `O=C(NN=Cc1c(O)ccc2ccccc12)c1ccncc1` a recorded IRF reporter greater than or equal to 1?
false (0)

Does the reported IRF reporter for `COc1ccc2cc(Br)ccc2c1CC(N)=O` fall at or above the 1 mark?
false (0)

Is reported IRF reporter greater than or equal to 1 here: `Cc1cnc2c(c1NCCCO)c(=O)n(C)c(=O)n2C`
false (0)

State whether the measured IRF reporter reaches 1, counting equality as reaching it, for `CN1CCN(CCC=C2c3ccccc3Sc3ccc(S(=O)(=O)N(C)C)cc32)CC1`
false (0)

Confirm if IRF reporter reported for the compound `Cc1ncsc1C(=O)N1CC(OCC(F)(F)F)C1` is 1 or above.
true (1)

Given `COc1ccc(-c2coc3cc(O)cc(O)c3c2=O)cc1` , state whether its IRF reporter is at least 1.
false (0)

For this compound, is measured IRF reporter 1 or higher? `O=C(c1ccc(OC(F)(F)F)cc1)N1CCC(Oc2cnccn2)CC1`
false (0)

###

- Tested on: RAW-Dual (murine macrophage reporter line)
- TEST_DESCRIPTION: NF-kB reporter (SEAP) activity fold change vs agonist alone; higher = enhanced NF-kB activity
- DETAILS: modulator concentration 10 µM; agonist: LPS 0.1 ug/mL
QUANTITY_MEASURED: NF-kB reporter
Output spec: single numeric token, no unit.

Look up NF-kB reporter for this compound: COC(CNC(=O)C(C)(C)Oc1ccc(Cl)cc1)c1cccc(F)c1 (stereo not given)
1.07

Need NF-kB reporter of `CC(=O)Oc1cc(C(F)(F)F)ccc1C(=O)O` , thanks.
1.05

Item CC(O)c1cn(-c2cccc(C(F)(F)F)c2)nn1 (stereo not given) has what recorded NF-kB reporter?
1.16

Please look up its NF-kB reporter: `CCC(=O)NS(=O)(=O)c1ccc(-c2c(-c3ccccc3)noc2C)cc1`
1.2

What value of NF-kB reporter has been reported for the following compound? `CC(C)CN(C[C@@H](O)[C@H](Cc1ccccc1)NC(=O)O[C@H]1CO[C@H]2OCC[C@H]21)S(=O)(=O)c1ccc(N)cc1.CCO`
1.11

NF-kB reporter for `CN(C)CCCN(C(=O)Cc1ccc(F)cc1)c1nc2ccc(Cl)cc2s1.Cl` ?
0.503

I would be grateful if you could share the reported NF-kB reporter for `CNC(=O)[C@H](Cc1ccccc1)NC(=O)[C@H](CC(C)C)[C@H](CSc1cccs1)C(=O)NO` .
1.22

Recorded NF-kB reporter of `COc1ccc(NC(=O)CCn2nc(C)nc2C)cc1` , please.
1.07

Value lookup for NF-kB reporter; key = CCOC(=O)C1C(=O)C=C(C)C(C(=O)OCC)C1c1ccc(Br)cc1 (stereo not given)
1.01

Look up NF-kB reporter for this compound: `COc1ccc(NC(=O)CN(c2ccc(C)c(C)c2)S(C)(=O)=O)cc1`
1.02

###

- System: RAW-Dual (murine macrophage reporter line)
- TEST_DESCRIPTION: IRF reporter (Lucia luciferase) activity fold change vs agonist alone; higher = enhanced IRF activity
- DETAILS: modulator concentration 10 µM; agonist: MPLA […]
QUANTITY_MEASURED: IRF reporter
Hey, just send me the number, nothing else.

Dear colleague, I am looking for the recorded IRF reporter of the following compound: `CN(c1ccccc1)c1nnc(C(C)(C)C)c(=O)[nH]1`
0.863

Record request: IRF reporter value, item `COc1ccc(-n2c(=O)c3c4c(sc3n3c(SC)nnc23)CCCC4)cc1`
0.921

What value of IRF reporter has been reported for the following compound? CC(C)CC(C(=O)Nc1cccc(O)c1)N1C(=O)c2ccccc2C1=O (stereo unspecified)
1.63

IRF reporter lookup needed for `O=C(O)C=Cc1ccc2c(c1)OCCO2` , thanks.
1.47

Return reported IRF reporter; argument: `CC(C)(O)C#Cc1ccccn1`
1.08

What IRF reporter value was documented for this compound, `COc1cccc2cc(C(=O)NCc3nn(C4CCCC4)c(=O)c4ccccc34)oc12` ?
0.848

Form field: reported IRF reporter of `O=C1NC(=O)C(=Cc2ccc(-c3cccc(Cl)c3)o2)S1`
1.2

Which IRF reporter value is on record for `CCCC(C(=O)OCCN(CC)CC)(c1ccccc1)c1ccccc1.Cl` ?
1.03

Please give the measured IRF reporter for this compound: CC(C)NCC(O)COc1cccc2ccccc12.Cl (stereo unspecified)
1.12

# query: IRF reporter of entry `Cc1c(C(=O)Nc2ccc(N3C[C@@H](C)O[C@@H](C)C3)nc2)cccc1-c1ccc(OC(F)(F)F)cc1`
1.37

Reported IRF reporter, compound `Cl.Cl.Cn1cc(CNCC2CCN(c3ncc(C(=O)NO)cn3)CC2)c2ccccc21` : ____
0.692
